Target System: CFTR G551D mutant (Homo sapiens, UniProt P13569, G551D)
Sequence (P13569 whole entry G551D): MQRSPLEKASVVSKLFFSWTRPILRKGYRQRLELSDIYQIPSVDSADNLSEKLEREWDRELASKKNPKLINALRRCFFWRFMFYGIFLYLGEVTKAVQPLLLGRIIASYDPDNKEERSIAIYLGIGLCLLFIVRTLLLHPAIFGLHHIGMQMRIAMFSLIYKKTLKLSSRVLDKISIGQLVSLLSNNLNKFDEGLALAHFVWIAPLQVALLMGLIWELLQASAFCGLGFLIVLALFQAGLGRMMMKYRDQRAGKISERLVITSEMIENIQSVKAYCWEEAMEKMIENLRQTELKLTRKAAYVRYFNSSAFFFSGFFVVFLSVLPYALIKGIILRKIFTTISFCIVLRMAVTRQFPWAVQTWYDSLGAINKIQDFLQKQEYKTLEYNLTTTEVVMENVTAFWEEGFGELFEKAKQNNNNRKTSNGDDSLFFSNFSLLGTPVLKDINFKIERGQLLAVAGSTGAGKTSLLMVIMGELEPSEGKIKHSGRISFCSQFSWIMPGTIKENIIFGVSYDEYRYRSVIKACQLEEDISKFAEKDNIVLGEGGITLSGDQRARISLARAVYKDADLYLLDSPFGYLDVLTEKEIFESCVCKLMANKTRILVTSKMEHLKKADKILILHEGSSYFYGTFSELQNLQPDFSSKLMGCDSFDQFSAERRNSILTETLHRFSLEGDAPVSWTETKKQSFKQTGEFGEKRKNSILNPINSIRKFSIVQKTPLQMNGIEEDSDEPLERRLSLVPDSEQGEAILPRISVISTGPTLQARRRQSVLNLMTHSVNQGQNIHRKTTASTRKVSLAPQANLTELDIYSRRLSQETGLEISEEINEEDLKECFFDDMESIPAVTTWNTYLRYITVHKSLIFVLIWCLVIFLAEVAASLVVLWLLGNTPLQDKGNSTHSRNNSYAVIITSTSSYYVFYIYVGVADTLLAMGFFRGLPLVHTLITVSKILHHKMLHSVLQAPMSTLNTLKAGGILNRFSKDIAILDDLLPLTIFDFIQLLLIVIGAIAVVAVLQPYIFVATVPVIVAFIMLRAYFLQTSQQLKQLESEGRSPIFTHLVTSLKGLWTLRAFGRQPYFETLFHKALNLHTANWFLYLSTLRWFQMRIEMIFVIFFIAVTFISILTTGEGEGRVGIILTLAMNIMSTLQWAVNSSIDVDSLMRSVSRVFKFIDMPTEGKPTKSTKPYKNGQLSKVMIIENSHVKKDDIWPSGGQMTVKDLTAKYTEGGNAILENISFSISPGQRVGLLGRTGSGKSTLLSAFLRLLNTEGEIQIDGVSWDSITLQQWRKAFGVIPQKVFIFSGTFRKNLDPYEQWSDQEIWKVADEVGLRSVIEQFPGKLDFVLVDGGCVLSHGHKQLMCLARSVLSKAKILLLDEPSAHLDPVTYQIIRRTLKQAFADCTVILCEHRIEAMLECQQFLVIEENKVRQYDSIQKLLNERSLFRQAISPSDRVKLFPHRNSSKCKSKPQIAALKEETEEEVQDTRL
Assay Remarks: YFP-halide influx assay for the CFTR-G551D mutation (HEK293 cells)
Settings: forskolin 10.67 μM
Give pEC50 for every item shown.
Answers are plain numbers, as −log10 of the molar value.

• CC[C@@H](CO)NC(=O)c1ncc(S(=O)(=O)c2ccc(C(F)(F)F)cc2)cc1N = 5.96

// each compound listed below needs its pEC50
1. Nc1cc(S(=O)(=O)c2ccc(F)cc2)cnc1C(=O)NC[C@@H](O)C(F)(F)F
2. C[C@H](O)CNC(=O)c1nc(NC2CC2)c(S(=O)(=O)c2ccc(OC(F)(F)F)cc2)cc1N
3. Nc1cc(S(=O)(=O)c2ccc(OC(F)(F)F)cc2)cnc1C(=O)NCCc1ccco1
4. Nc1cc(S(=O)(=O)c2ccc(OC(F)(F)F)cc2)cnc1C(=O)N[C@@H]1CCCC[C@H]1O (racemic)
5. C[C@H](O)CNC(=O)c1ncc(S(=O)(=O)N(C)Cc2ccc(F)cc2)cc1N

[6.18, 6.11, 6.10, 5.79, 5.88]

Ref: patent US10047051B2
